TARGET OR SYSTEM: serotonin (5-HT) reuptake (Rattus norvegicus, UniProt P31652)
Construct: synaptosomes are freshly isolated from areas of the rat brain; from tissue; host or cells: rat brain synaptosomes (P2 fraction)
Sequence (P31652 whole entry): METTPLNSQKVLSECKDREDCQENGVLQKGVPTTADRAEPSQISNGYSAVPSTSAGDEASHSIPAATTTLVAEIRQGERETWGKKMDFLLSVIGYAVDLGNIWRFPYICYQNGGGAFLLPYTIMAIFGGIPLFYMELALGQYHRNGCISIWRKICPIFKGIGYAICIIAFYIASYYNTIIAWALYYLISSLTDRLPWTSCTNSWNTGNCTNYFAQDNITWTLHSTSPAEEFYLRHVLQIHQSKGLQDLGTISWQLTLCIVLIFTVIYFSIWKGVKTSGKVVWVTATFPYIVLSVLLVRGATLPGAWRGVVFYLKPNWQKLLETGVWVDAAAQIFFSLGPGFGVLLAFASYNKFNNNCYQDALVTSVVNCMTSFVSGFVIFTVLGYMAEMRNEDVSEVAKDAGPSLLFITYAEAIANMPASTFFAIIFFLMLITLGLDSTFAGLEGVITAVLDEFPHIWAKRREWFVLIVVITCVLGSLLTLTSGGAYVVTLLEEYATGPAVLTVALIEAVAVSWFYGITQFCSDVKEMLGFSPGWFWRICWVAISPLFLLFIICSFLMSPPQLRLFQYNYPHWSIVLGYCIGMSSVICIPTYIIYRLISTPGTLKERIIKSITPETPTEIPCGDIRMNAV
ASSAY PROTOCOL: Inhibition of serotonin (5HT) reuptake in synaptosomes from rat brain
Format: biochemical
CONDITION CONTEXT: test concentration of 10 μM
REPORTED ENDPOINT: 5-HT (inhibition of reuptake of serotonin, % inhibition) (%)
One number for each entry, in %.

Sample answers from the record:
COc1cc(C)c(S(=O)(=O)N(C)CCOCC(=O)NCC2CCC(C(c3ccc(Cl)cc3)N(C)C)CC2)c(C)c1 (centres unmarked) ... 83
CN(C)C(c1ccc(Cl)cc1)C1CCC(CCNC(=O)COC2CCN(S(=O)(=O)c3ccccc3)CC2)CC1 (centres unmarked) ... 96
Cc1cc(C)c(S(=O)(=O)N2CCC(OCC(=O)NCC3CCC(C(c4ccc(F)cc4)N(C)C)CC3)C2)c(C)c1 (centres unmarked) ... 82
COc1cc(C)c(S(=O)(=O)N2CCC(OCC(=O)NCC3CCC(C(c4cccc(F)c4)N(C)C)CC3)C2)c(C)c1 (centres unmarked) ... 95
COc1ccc(S(=O)(=O)N2CCCC2COCC(=O)NCC2CCC(C(c3ccc(Cl)cc3)N(C)C)CC2)cc1 (centres unmarked) ... 97

Batch request: 5-HT (inhibition of reuptake of serotonin, % inhibition) for each of the following molecules.
1. COc1cc(C)c(S(=O)(=O)N(CCOCC(=O)NCC2CCC(C(CCc3ccccc3)N(C)C)CC2)Cc2ccccc2)c(C)c1 (centres unmarked)
2. COc1cc(C)c(S(=O)(=O)N2CCC(OCC(=O)NCCC3CCC(C(c4ccc(Cl)cc4)N(C)C)CC3)C2)c(C)c1 (centres unmarked)
3. COc1cc(C)c(S(=O)(=O)N2CCC(OCC(=O)NCCC3CCC(C(c4ccc(F)cc4)N(C)C)CC3)C2)c(C)c1C (centres unmarked)
4. Cc1ccc(S(=O)(=O)N2CCC(OCC(=O)NCC3CCC(C(CCc4ccccc4)N(C)C)CC3)C2)cc1 (centres unmarked)

Out:
1: 87; 2: 97; 3: 95; 4: 91

Batch request: 5-HT (inhibition of reuptake of serotonin, % inhibition) for each of the following molecules.
1. COc1cc(C)c(S(=O)(=O)N2CCC(OCC(=O)NCCC3CCC(C(c4ccc(Cl)cc4)N(C)C)CC3)C2)c(C)c1C (centres unmarked)
2. COc1ccc(S(=O)(=O)N2CCCCC2COCC(=O)NC2CCC(C(c3ccc(F)cc3)N(C)C)CC2)cc1 (centres unmarked)

Out:
[95, 90]

Provenance of the data: patent US8106055B2
